# tgt: Potassium voltage-gated channel subfamily KQT member 1 (Homo sapiens)
# test_summary: KCNQ1 potassium channel potentiators, confirmation, FluxOR thallium flux, CHO cells, duplicates (AID 493007)
# particulars: KCNQ1 cell line, FluxOR thallium flux fluorescence, at 10 µM, % of reference activator effect, buffer zero
The source made the active and inactive calls.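 How the source made its calls: active means potentiation averaged over duplicate wells exceeding buffer-only control mean by more than 3 SD; inactive means the rest.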
Output constraint: value belongs to 1 for active, 0 for inactive

# example entries with known answers
CCN(CC)C(=S)NC(=O)c1ccc(Cl)cc1Cl :: 1
COC(=O)c1ccc(CSc2ncnc3sc(C)c(C)c23)o1 :: 1
Cc1cc(C)c(NC(=O)c2cn3c4c(c(N5CCN(C)CC5)c(F)cc4c2=O)OCC3C)c(C)c1 (stereo unspecified) :: 0

Req: Test call for this compound, please: `Cc1noc(C)c1COc1ccc(CC(=O)NCc2ccccc2)cc1`
Resp: 0

Req: Hey, what did the test say about `CNC(=O)c1cc(-c2ccc(Cl)cc2)n(-c2ccccc2)n1` ?
Resp: 0

Req: Given `COc1cccc2c1C(=O)C=C(C)C2=O` , state the outcome it received in this test.
Resp: 0
